The origin of these recorded values is the Immune Epitope Database (IEDB).

# TEST_TARGET: HLA-B*58:01
# PROTOCOL_DESCRIPTION: IEDB peptide-MHC binding, purified MHC/direct/fluorescence; filed as Kd, often an IC50 or EC50 that approximates it; bounds were set here for any values at or beyond the usual limits of such assays
# PROTOCOL_CONDITIONS: source organism: Yellow fever virus
pKd: −log10 of the molar value.
Listing: pKd of selected sequences
MEASURE: pKd

- CONSTRUCT_SEQUENCE: "IQYVIRAQL"
  RESULT: "≤ 4.70"
- CONSTRUCT_SEQUENCE: "TKDTNDNNL"
  RESULT: "≤ 4.70"
